# PROCEDURE_SUMMARY: folding stability dG unfold from chymotrypsin proteolysis; higher = more stable
Categories are defined by ranges of folding stability dG unfold, namely bottom end: < 2 kJ/mol; midrange: ≥ 2 kJ/mol and < 10 kJ/mol; top end: ≥ 10 kJ/mol

INSERT INTO measurements (sequence_string, qualitative_label) VALUES
  ('SAGGMKVTRLPNALVFEYPLPNSTLRIVVTPGDGTYTLELYRDGKLIATFPSPGPVADLVEAAIKALSAGGS [r8_276_TrMRF]', 'top end'),
  ('SAGGSAGGSAGSVTITRDYPTPDGTRTTVTITFPSLERSPSVKYKLVSVSPDGNYVLSPESAGGSAGGSAGG [r11_733_JUSTAS]', 'midrange'),
  ('SAGGSEEIKKLLASGQLDEVIALLKKKGYENVTVTPDPRKPVVTINVTKTDPKTGKKKTTTITIPTGLSAGG [r13_359_JUSTAS]', 'top end'),
  ('SAGGMPVRVLITYESGEIPVTIPVDPNKVVEAEVELEDKTVKITVDPKAKTIKVDAPPSFKFEVLDPSAGGS [r16_761_JUSTAS]', 'bottom end'),
  ('SAGDPEVVAEAEFPFTFPLAKIEVRISVYPDGTARIEVTITFPAPGKGNPKKPIKLRFRFEIKLAPDALSAG [r5_224_TrMRF]', 'top end'),
  ('SAGGTLRNMPVEQIAKRLQNHGYEIKVENIRHNEDRVRIKIEVERRNKNGKPHEEVKISIEIPDPDDFSAGG [r13_566_TrROS]', 'bottom end'),
  ('SAGGSAGGSAGGKHKIPITNVHVSPPNGYIHVTIRFPGDGKPIEIHFPVPPGEPITIEISAGGSAGGSAGGS [r10_940_TrROS]', 'top end'),
  ('SAGGSASMARVEAIAEEIAPRLKAEGRPIARIEVTATRLPDGTVVVPITLTTPDGTPVYTFEVVVESAGGSA [r15_232_JUSTAS]', 'midrange'),
  ('SAGGSAGGSGDSITLPVSVPKGSELVIENLSTNKKVIIPDDGPVTITIDKGKDGLKISAEVEKSAGGSAGGS [r12_919_TrMRF]', 'bottom end'),
  ('SAGGASTVEYEITLPLDPSGSVDPDTIRAAAEAIAAADPDFVDHRIEEITITRLPDGTVRFTVTISVPSAGG [r13_462_JUSTAS]', 'top end'),
  ('SAGGSAGGSAGGPEVTITLPPPEKVKVEIVEIEVEGGKVRIRVRNENGEELTFTVPLEDLSAGGSAGGSAGG [r7_829_TrROS_Hall]', 'midrange'),
  ('SAGGMITEKVEKIDDGEIIKLTANLSDPSPVVAWLKATGKNVKLVEIKPTTDPETGNTTVNATFLLPSAGGS [r16_699_JUSTAS]', 'bottom end'),
  ('SAGGSMLEVYYRIPPDIPLEEALERVAREVEEVLRARYGGPVTVEAEEVERPPDDETLLRVLVRFESAGGSA [r2_214_TrMRF]', 'top end'),
  ('SAGGKKKKIKPKEIKVRIIIEKDGKKIEIELSEEELEKIKKAPTLEEIIKELEKKGFKIVKIEIEKKSAGGS [r16_567_TrROS_Hall]', 'top end'),
  ('SAGGSAGGSDPDLDIPPAPLEEIYIPGTGRLLVLYEPTGLVAAYPPSGSFEIGVYDPETGKISSAGGSAGGS [r12_420_TrMRF]', 'bottom end'),
  ('SAGGSAGGSAGGKKKVKILEVKKIPELNEIVVVIETENGKPVLVPLKPGKTLEDVKKEISAGGSAGGSAGGS [r10_984_TrMRF]', 'midrange'),
  ('SAGGSAGGSAMPLTSPEEAARHIKEALERLFPSSFPDRVIDPDVVVFTRPDGRVVALVKLKASAGGSAGGSA [r18_440_TrMRF]', 'midrange'),
  ('SAGGMVLVEPSPDAVVRVIEREGDLARVTVYDPRSGARTVELVPIAPTGKGGVRLETLEVRVLPDAEASAGG [r13_556_JUSTAS]', 'bottom end'),
  ('SVPYGVTDVTFEPEKNTATVTAPRPDPSAPVAVGDKKGESVSVTSEVDTAAGTLTVTVPTTAPGNVTVDVPS [r1_138_JUSTAS]', 'bottom end'),
  ('SAGGKITIEVTYNKETGEITIRITFNGKTIEIKIKVPGLSEEEVKKLAEELAKKLKEKYGIDKVEITSAGGS [r16_249_TrROS_Hall]', 'top end'),
  ('SAGDEALLERIRARAEAEAKAAGPDPTPLDYRVEVEPVEIDEETGTVKVRVTITAPDREVEREVTVPLVSAG [r5_53_JUSTAS]', 'bottom end'),
  ('SAGGSVITEEEKEKIKKEYPNLDIKLKALKPGETITYPNGTKVYGSPNGFLVEITNPDGTKTVIKESAGGSA [r2_166_JUSTAS]', 'midrange'),
  ('SAGGMLSRESTDPGPGRRTLTREEPLPDGTVPVTVTTESPDPSVTTVETRLVFPGPAVETPTRTAAPSAGGS [r16_684_JUSTAS]', 'midrange'),
  ('SAGGSAGGSGAEITTLPEGRALLRLYDEGGVLVEEAEVEVELDAVLVFDRDNPRIGVFGPDELSAGGSAGGS [r12_1002_TrMRF]', 'bottom end'),
  ('SMNIISIDIEPYRTGGEPWIYIPIQVPDENMPPSELEEIVEEIFEKLGLPINVKVHRDPNSGTIWIMIRLSA [r9_717_TrROS]', 'top end'),
  ('SAGGMKEITLPNGVKITEVIEKDGYYYIKIYNKKTGKVYEIKVKKGEKIEIKFPKGSTVTKIEIVKKSAGGS [r16_123_TrROS_Hall]', 'top end');
